Documented IC50 across a set of compounds
target_entity: Endoplasmic reticulum aminopeptidase 2 (Homo sapiens)
Sequence (Q6P179 whole entry): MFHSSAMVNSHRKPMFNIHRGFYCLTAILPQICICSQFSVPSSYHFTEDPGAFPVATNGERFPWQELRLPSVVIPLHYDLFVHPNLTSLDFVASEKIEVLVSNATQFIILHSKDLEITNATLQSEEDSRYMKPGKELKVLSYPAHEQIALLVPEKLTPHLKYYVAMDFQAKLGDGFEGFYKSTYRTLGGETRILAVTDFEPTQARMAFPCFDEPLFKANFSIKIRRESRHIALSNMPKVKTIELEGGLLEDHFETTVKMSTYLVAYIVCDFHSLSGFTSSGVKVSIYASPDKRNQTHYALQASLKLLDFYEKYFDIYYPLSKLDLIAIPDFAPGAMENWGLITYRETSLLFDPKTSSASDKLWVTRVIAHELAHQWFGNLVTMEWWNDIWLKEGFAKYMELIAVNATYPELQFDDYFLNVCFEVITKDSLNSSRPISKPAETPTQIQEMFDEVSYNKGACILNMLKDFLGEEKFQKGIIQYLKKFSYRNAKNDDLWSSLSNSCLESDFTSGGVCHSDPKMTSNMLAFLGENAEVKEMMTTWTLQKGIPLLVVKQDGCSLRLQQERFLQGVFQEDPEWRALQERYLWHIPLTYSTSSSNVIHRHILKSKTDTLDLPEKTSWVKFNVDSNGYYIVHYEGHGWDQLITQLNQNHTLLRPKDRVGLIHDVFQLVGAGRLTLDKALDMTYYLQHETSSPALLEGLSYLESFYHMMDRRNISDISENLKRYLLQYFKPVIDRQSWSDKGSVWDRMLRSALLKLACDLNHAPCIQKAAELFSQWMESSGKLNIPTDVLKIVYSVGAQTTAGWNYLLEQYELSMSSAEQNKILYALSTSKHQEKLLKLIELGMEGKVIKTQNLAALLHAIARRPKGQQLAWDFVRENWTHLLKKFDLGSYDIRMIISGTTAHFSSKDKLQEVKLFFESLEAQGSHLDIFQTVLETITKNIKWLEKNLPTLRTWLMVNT
assay_text: Inhibition of human recombinant ERAP2 expressed in baculovirus infected cabbage looper ovary Hi5 cells using L-arginyl-7-amido-4-methyl coumarin as substrate after 5 to 10 mins by fluorescence assay
Design: species or system Female gonad, BTI-TN-5B1-4
property_label: IC50

# smiles_str, observed_measurement
records = [
    ("COC(=O)c1ccc(NC(=O)[C@@H](N)CC(C)C)c(N)c1", "> 100 µM"),
    ("Nc1ccc(C(=O)N[C@@H](Cc2c[nH]c3ccccc23)C(=O)O)cc1NC(=O)[C@@H](N)CCc1ccc(O)cc1", "> 100 µM"),
    ("Nc1ccc(C(=O)N[C@@H](Cc2c[nH]c3ccccc23)C(=O)OCc2ccccc2)cc1N", "> 100 µM"),
    ("CC(C)[C@H](NC(=O)c1ccc(N)c(NC(=O)[C@@H](N)Cc2ccc(O)cc2)c1)C(=O)O", "> 100 µM"),
]

----------
target_entity: Endoplasmic reticulum aminopeptidase 1 (Mus musculus)
Sequence (whole entry): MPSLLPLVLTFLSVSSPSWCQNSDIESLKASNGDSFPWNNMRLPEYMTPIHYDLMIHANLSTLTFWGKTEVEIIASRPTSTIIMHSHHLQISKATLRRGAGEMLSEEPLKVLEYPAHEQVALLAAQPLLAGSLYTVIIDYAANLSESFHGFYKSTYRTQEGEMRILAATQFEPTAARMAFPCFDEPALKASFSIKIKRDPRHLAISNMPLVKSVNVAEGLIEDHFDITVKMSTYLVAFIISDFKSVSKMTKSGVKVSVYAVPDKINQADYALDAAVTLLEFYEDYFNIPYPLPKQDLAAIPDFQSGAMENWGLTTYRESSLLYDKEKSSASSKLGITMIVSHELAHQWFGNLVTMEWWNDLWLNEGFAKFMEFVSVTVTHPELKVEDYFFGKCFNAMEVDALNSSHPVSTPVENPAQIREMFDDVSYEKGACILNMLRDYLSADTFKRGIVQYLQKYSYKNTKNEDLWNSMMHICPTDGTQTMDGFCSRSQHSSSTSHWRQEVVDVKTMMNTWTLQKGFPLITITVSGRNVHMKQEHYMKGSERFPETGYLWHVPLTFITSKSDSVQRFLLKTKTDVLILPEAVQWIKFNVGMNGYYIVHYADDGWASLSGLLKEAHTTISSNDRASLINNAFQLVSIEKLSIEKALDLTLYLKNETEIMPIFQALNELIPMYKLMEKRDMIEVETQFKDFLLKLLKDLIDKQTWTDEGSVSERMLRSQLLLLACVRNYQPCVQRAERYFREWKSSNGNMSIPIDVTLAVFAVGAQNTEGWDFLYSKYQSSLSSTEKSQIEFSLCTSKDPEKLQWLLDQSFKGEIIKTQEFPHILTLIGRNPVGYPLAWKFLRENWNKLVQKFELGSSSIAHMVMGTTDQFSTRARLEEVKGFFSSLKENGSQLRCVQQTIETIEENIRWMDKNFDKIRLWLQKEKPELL
assay_text: Inhibition of ERAP1 in mouse RAW264.7 cells assessed as reduction in interferon-gamma/LPS-induced phagocytosis after 24 hrs by fluorescent latex beads internalization assay
Type: cell-based

# smiles_str, target_entity, ED50
measured = [
    ("CCCC[C@H](N)C(=O)Nc1cc(C(=O)N[C@@H](Cc2c[nH]c3ccccc23)C(=O)OCc2ccccc2)ccc1N", "Endoplasmic reticulum aminopeptidase 1 (Mus musculus)", "560 nM"),
    ("COC(=O)[C@H](Cc1ccc(O)cc1)NC(=O)c1ccc(N)c(NC(=O)[C@@H](N)CCCNC(=N)N)c1", "Endoplasmic reticulum aminopeptidase 1 (Mus musculus)", "3000 nM"),
    ("COC(=O)[C@H](CCCCN)NC(=O)c1ccc(N)c(NC(=O)[C@@H](N)CCc2ccccc2)c1", "Endoplasmic reticulum aminopeptidase 1 (Mus musculus)", "970 nM"),
]
